measurementNotes: Absolute oral bioavailability
runConditions: in vivo, read-out: Absolute oral bioavailability F
outcomeMeasure: bioavailability (%)

smilesInput: COc1ccc(Nc2nc(-c3ccc4c(CN5CC(N)C5)c[nH]c4c3)cnc2C(N)=O)cc1OC
unitsText: %
bioavailability: 2
//
smilesInput: COc1ccc(Nc2nc(-c3ccc4c(CCCO)cn(C)c4c3)cnc2C(N)=O)cc1OC
unitsText: %
bioavailability: 8

A: COc1ccc(Nc2nc(-c3ccc4c(CN5CC(C(=O)O)C5)c[nH]c4c3)cnc2C(N)=O)cc1OC
B: COc1ccc(Nc2nc(-c3ccc4c(CN5CC(O)C5)c[nH]c4c3)cnc2C(N)=O)cc1OC
// compare measured bioavailability, left A , right B , return larger Identify your pick by its label.
B
(B: 2%, A: 1.1%)

###

studyTarget: FGFR3 (Homo sapiens, UniProt P22607)
Sequence (P22607 23-806): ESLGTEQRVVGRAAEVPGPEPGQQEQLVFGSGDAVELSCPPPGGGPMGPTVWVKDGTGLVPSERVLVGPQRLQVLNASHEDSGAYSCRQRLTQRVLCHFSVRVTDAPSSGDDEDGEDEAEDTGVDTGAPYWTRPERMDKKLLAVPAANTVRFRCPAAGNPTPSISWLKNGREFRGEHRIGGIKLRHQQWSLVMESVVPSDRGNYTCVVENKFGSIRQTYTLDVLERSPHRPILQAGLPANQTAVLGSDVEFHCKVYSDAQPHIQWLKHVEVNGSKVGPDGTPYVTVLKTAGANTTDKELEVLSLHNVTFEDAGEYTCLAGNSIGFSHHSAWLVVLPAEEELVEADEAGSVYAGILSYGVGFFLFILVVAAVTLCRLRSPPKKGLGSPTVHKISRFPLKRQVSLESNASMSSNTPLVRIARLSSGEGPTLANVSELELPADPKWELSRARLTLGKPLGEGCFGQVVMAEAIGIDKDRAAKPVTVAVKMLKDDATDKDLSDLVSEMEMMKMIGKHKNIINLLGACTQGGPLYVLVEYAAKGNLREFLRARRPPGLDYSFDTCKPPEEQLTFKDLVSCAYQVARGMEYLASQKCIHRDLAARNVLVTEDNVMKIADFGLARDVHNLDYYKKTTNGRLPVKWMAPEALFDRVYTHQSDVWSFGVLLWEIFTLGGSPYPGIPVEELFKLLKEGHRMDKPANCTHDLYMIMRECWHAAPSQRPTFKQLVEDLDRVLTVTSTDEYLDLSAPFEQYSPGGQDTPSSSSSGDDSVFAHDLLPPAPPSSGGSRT
measurementNotes: ADP-Glo kinase inhibition assay, FGFR3
runConditions: read-out: IC50 FGFR3; ADP-Glo
outcomeMeasure: IC50 (µM)

smilesInput: Cn1cc(-c2nc(N[C@@H]3CCCC[C@@H]3N)c(F)c3c2C(=O)NC3)cn1
observedMeasurement: 0.019

A: Oc1cc(O)cc(/C=C/c2ccc(O)c(O)c2)c1
B: NCCNc1ncc(C(N)=O)c(Nc2cccc(C(F)(F)F)c2)n1
# compare IC50 for A vs B ; return the one with the smaller value Identify your pick by its label.
A

###

System: Band 3 tyrosine phosphorylation
measurementNotes: Inhibition of Band 3 tyrosine phosphorylation (cellular potency)
Assay type: cell-based, human
runConditions: Homo sapiens; read-out: Inhibition of Band 3 Tyrosine Phosphorylation EC50, pTyr359
pEC50: −log10 of the molar value.
outcomeMeasure: pEC50

1: COc1ccc(Nc2nc(-c3ccc4c(CN5CC(O)C5)c[nH]c4c3)cnc2C(N)=O)cc1OC
2: COc1ccc(Nc2nc(-c3ccc4c(CN5CC(O)C5)c[nH]c4c3)cn3ccnc23)cc1OC
# compare pEC50 for 1 vs 2 ; return the one with the smaller value Identify your pick by its label.
2
(2: 5.00, 1: 5.80)

###

Below are compounds with their IC50 as measured on EGFR (Homo sapiens).
Sequence (P00533 25-1210): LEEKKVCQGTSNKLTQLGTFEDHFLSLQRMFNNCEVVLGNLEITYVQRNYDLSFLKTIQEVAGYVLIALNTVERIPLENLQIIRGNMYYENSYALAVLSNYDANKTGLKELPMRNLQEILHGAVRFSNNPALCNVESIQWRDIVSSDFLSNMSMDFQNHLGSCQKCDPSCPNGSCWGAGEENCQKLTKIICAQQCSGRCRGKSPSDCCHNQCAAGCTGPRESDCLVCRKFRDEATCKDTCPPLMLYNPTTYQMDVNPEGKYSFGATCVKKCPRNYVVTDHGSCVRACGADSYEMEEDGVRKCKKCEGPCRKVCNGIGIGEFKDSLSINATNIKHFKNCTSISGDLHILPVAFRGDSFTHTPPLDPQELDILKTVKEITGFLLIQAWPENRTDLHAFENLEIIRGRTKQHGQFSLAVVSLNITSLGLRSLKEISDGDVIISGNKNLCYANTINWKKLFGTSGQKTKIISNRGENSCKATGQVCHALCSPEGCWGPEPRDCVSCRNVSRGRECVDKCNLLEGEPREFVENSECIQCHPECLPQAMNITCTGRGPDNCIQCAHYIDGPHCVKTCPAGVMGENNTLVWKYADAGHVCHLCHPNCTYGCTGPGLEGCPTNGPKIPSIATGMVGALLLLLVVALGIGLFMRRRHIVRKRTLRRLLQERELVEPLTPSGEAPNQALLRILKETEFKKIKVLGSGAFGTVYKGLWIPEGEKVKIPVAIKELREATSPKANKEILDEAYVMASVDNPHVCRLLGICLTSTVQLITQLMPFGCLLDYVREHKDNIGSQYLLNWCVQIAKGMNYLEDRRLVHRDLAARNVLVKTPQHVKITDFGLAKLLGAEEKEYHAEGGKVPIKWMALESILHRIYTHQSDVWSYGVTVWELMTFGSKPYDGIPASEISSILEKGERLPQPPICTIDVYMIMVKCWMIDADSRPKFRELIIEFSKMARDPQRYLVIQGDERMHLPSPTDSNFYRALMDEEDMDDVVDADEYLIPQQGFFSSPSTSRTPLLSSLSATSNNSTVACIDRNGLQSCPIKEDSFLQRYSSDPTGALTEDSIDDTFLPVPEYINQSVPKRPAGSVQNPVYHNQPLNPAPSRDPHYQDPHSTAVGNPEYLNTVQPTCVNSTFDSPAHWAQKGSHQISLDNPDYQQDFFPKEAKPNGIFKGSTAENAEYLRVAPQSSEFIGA
outcomeMeasure: IC50 (µM)

a: Cc1cc(Nc2ncnc3ccc(NC4=NC(C)(C)CO4)cc23)ccc1Oc1ccn2ncnc2c1 [Tucatinib]
b: Cn1cc(-c2nc(N[C@@H]3CCCC[C@@H]3N)c(F)c3c2C(=O)NC3)cn1 [TAK-659]
c: O=C(Nc1cnn2ccc(N3CCC[C@@H]3c3cc(F)ccc3F)nc12)N1CC[C@H](O)C1 [Larotrectinib]
d: Oc1cc(O)cc(/C=C/c2ccc(O)c(O)c2)c1 [Piceatannal]
Which order do the above compounds take when sorted by rising IC50? Smallest first. Provide the labels, sequenced as the question asks.
a, c, d, b
(a: 0.0388 µM, c: 6.37 µM, d: 17.6 µM, b: 27.6 µM)

###

studyTarget: Syk (Homo sapiens)
measurementNotes: ADP-Glo kinase inhibition assay, Syk
pIC50: −log10 of the molar value.
outcomeMeasure: pIC50

smilesInput: COc1ccc(Nc2nc(-c3ccc4c(CN5CC(C(=O)O)C5)c[nH]c4c3)cnc2C(N)=O)cc1OC
pIC50: 7.30

A: COc1ccc(Nc2nc(-c3ccc4c(CN5CC(N)C5)c[nH]c4c3)cnc2C(N)=O)cc1OC
B: CCn1c(=O)c(-c2cc(NC(=O)Nc3ccccc3)c(F)cc2Br)cc2cnc(NC)cc21
C: COc1ccc(Nc2nc(-c3ccc4c(CCCO)cn(C)c4c3)cnc2C(N)=O)cc1OC
D: CCc1cc2c(cc1N1CCC(N3CCOCC3)CC1)C(C)(C)c1[nH]c3cc(C#N)ccc3c1C2=O
Hey, quick one: sort these by pIC50, largest value first please. Provide the labels, sequenced as the question asks.
A, C, B, D
(A: 7.60, C: 6.83, B: 4.88, D: 4.43)
